molecular target: ALPK1 (Homo sapiens (Human)); assay: ALPK1 in vitro kinase assay (HTRF of TIFA phosphorylation); assay type: biochemical; settings: ALPK1 2 nM, TIFA substrate, ADP-Heptose activator, HTRF readout
pIC50: −log10 of the molar value.
measured.metric: pIC50

molecule=COc1ccc(C(C)(C)c2csc(NC(=O)c3ccc(N4CCNCC4)cc3)n2)cc1 tgt="ALPK1 (Homo sapiens (Human))" recorded_number=6.91
molecule="C#C[C@](C)(c1ccc(F)cc1)c1csc(NC(=O)c2ccc(N3CCNCC3CO)cc2)n1 (stereo in doubt) [Example B070]" tgt="ALPK1 (Homo sapiens (Human))" recorded_number=6.77
molecule="C#CC(C)(c1ccc(Cl)cc1)c1csc(NC(=O)c2c(F)ccc(OC)c2F)n1 (stereo not shown)" tgt="ALPK1 (Homo sapiens (Human))" recorded_number=7.27
molecule=Cc1ccc(C(C)(C)c2csc(NC(=O)c3ccc(N4CCNCC4)cc3)n2)cc1 tgt="ALPK1 (Homo sapiens (Human))" recorded_number=7.43
molecule="C#C[C@@](C)(c1ccc(Cl)cc1)c1csc(NC(=O)c2c(F)cc(N3CCNCC3CO)cc2F)n1 (stereo in doubt)" tgt="ALPK1 (Homo sapiens (Human))" recorded_number=6.92
molecule=COC[C@](C)(c1ccc(Cl)cc1)c1csc(NC(=O)c2c(F)cc(N3CCNCC3)cc2F)n1 tgt="ALPK1 (Homo sapiens (Human))" recorded_number=6.89

====

system: ALPK1-dependent NFκB reporter gene activation in HEK293 cells stably expressing an NF-kB reporter (G9 cells); experiment: NFκB gene reporter alkaline phosphatase assay; assay type: cell-based; conditions: Homo sapiens, HEK293; read-out: NFkB assay IC50
pIC50: −log10 of the molar value.
Threshold check on pIC50: at or above 6 gives 1, strictly below gives -1.

molecule=C#C[C@](C)(c1ccc(Cl)cc1)c1csc(NC(=O)NC2(CO)CC2)n1 label=-1
molecule=COc1ccc(C(C)(C)c2csc(NC(=O)NCCCO)n2)cc1 label=1
molecule=COc1ccc(C(C)(C)c2csc(NC(=O)NO)n2)cc1 label=-1
molecule=C#C[C@](C)(c1ccc(Cl)cc1)c1nc(NC(=O)NCCO)sc1Cl label=-1
molecule=CC(C)(c1ccc(Br)cc1)c1csc(NC(=O)NCc2ccc(OCC(=O)N3CCNCC3)cc2)n1 label=-1
molecule=CC(C)(c1ccc(Br)cc1)c1csc(NC(=O)NCc2cnc(N3CCCNCC3)nc2)n1 label=-1
molecule=[2H]c1sc(NC(=O)NCCO)nc1[C@](C)(C#C)c1ccc(Cl)cc1 label=-1
molecule=COc1ccc(C(C)(C)c2csc(NC(=O)NCc3cnc(N4CCNCC4)nc3)n2)cc1 label=1
molecule="C#CC(C)(c1ccc(Br)cc1)c1csc(NC(=O)NCC(O)CO)n1 (stereo not shown)" label=1
molecule="COc1ccc(C(C)(C)c2csc(NC(=O)NCCCCN3CCC(N)C3)n2)cc1 (stereo not shown)" label=-1
molecule=C#C[C@@](C)(c1ccc(Cl)cc1)c1csc(NC(=O)NCCS(N)(=O)=O)n1 label=1
molecule=COc1ccc(C(C)(C)c2csc(NC(=O)NCCCS(N)(=O)=O)n2)cc1 label=-1
molecule=[2H]c1sc(NC(=O)NCCO)nc1[C@@](C)(C#C)c1ccc(Cl)cc1 label=1
molecule="CC(C)(c1ccc(Br)cc1)c1csc(NC(=O)NCc2ccc(N3CCC(N)C3)nc2)n1 (stereo not shown)" label=-1
molecule=CC(C)(c1ccc(Br)cc1)c1csc(NC(=O)NCCCN)n1 label=-1
molecule="C#CC(C)(c1ccc(Br)cc1)c1csc(NC(N)=O)n1 (stereo in doubt) [Example A163]" label=1
molecule=CC(C)(c1ccc(Br)cc1)c1csc(NC(=O)NCCCCN)n1 label=-1
molecule=COc1ccc(C(C)(C)c2csc(NC(=O)NCc3ccc(NCCN)cc3)n2)cc1 label=-1
molecule=COc1ccc(C(C)(C)c2csc(NC(=O)NCc3ccc(NCCN)nc3)n2)cc1 label=-1
molecule="COc1ccc(C(C)(C)c2csc(NC(=O)NCCCN3CCNC(C)C3)n2)cc1 (stereo not shown)" label=-1
molecule="COc1ccc(C(C)(C)c2csc(NC(=O)NCCCN3CCC(N)C3)n2)cc1 (stereo not shown)" label=-1
molecule="C#CC(C)(c1ccc(Cl)cc1)c1csc(NC(=O)N2CCC(CO)CC2)n1 (stereo not shown)" label=-1
molecule=CC(C)(c1ccc(Br)cc1)c1csc(NC(=O)NCCN2CCNCC2)n1 label=-1
molecule="C#CC(C)(c1ccc(Cl)cc1)c1nc(NC(=O)NCCO)sc1F (stereo not shown)" label=-1
molecule="CC(NC(=O)Nc1nc(C(C)(C)c2ccc(Br)cc2)cs1)c1ccc(CN2CCN(C)CC2)cc1 (stereo not shown)" label=-1

====

Listed here: items and their measured IC50.
target: ALPK1 (Homo sapiens (Human), UniProt Q96QP1); test: ALPK1 in vitro kinase assay (HTRF of TIFA phosphorylation); format: biochemical; details: ALPK1 2 nM, TIFA substrate, ADP-Heptose activator, HTRF readout
Sequence (Q96QP1 whole entry): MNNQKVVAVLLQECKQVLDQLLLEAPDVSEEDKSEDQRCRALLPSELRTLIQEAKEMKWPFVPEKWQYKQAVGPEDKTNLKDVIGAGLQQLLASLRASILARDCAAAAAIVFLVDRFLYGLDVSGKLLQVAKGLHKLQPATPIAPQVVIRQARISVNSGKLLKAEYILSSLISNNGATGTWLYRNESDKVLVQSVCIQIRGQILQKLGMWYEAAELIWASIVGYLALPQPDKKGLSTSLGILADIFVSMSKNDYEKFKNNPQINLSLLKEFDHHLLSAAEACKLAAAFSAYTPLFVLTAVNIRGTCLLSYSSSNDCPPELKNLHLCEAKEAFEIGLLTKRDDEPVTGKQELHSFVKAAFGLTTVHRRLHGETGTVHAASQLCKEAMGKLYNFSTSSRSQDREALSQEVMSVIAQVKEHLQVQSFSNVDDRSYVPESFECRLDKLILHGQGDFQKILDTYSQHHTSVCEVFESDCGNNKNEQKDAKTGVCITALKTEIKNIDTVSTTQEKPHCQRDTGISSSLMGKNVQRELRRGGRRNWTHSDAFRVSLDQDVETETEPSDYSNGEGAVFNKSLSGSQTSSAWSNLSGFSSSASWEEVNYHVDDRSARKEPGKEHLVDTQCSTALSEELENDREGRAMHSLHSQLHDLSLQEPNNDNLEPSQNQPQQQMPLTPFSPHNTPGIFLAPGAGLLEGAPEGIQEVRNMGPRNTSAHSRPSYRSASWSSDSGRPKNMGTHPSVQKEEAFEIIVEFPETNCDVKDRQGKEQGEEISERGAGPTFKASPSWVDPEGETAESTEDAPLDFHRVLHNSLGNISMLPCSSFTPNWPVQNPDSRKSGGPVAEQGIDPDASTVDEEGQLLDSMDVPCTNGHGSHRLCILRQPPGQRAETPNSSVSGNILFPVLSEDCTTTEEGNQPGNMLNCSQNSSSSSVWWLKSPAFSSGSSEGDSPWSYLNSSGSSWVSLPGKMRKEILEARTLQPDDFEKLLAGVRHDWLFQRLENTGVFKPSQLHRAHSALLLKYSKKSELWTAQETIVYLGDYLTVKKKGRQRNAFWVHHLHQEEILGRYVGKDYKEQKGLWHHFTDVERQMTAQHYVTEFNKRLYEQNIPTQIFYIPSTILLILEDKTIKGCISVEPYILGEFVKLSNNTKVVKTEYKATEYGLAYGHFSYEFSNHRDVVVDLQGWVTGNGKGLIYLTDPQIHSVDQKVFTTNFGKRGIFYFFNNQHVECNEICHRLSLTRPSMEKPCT
measured.metric: IC50 (µM)

compound="C#C[C@](C)(c1ccc(C)cc1)c1csc(NC(=O)c2c(F)cc(N3CCNCC3)cc2F)n1 (stereo in doubt) [Example C040]" recorded_number=0.029
compound="C#CC(C)(c1ccc(Cl)cc1)c1c[nH]c(NC(=O)c2c(F)cc(N3CCNCC3)cc2F)n1 (stereo not drawn) [Example C052]" recorded_number=0.044
compound="COc1ccc(C(C)(C)c2csc(NC(=O)c3ccc(NCCN)cc3)n2)cc1 [Example B033]" recorded_number=0.247

====

molecular target: ALPK1 (Homo sapiens (Human), UniProt Q96QP1); test: ALPK1 in vitro kinase assay (HTRF of TIFA phosphorylation); assay type: biochemical; conditions: ALPK1 2 nM, TIFA substrate, ADP-Heptose activator, HTRF readout
pIC50: −log10 of the molar value.
Threshold check on pIC50: at or above 7 gives True, strictly below gives False.

molecule="C#CC(C)(c1ccc(Cl)cc1)c1coc(NC(=O)c2c(F)cc(N3CCNCC3)cc2F)n1 (centres unmarked) [Example C051]" label=True
molecule="CC(c1ccccc1)(c1ccc(Cl)cc1)c1csc(NC(=O)c2c(F)cc(N3CCNCC3)cc2F)n1 (centres unmarked) [Example C046]" label=False
molecule="CC(C)(c1ccc(Br)cc1)c1csc(NC(=O)c2ccc(N3CCNCC3)cc2)n1 [Example B016]" label=True
molecule="C#C[C@@](C)(c1ccc(Cl)cc1)c1csc(NC(=O)c2c(F)cc(N3CCN(C)CC3)cc2F)n1 [Example C011]" label=True
molecule="C#CC(C)(c1ccc(F)cc1)c1csc(NC(=O)c2c(F)cc(N3CCNC(CO)C3)cc2F)n1 (centres unmarked) [Example B082]" label=True
molecule="O=C(Nc1nc(C2(c3ccc(Br)cc3)CCCC2)cs1)c1c(F)cc(N2CCNCC2)cc1F [Example C026]" label=False
molecule="C#CC(C)(c1ccc(Cl)cc1)c1csc(NC(=O)c2ccc(N3CCNCC3)cc2)n1 (centres unmarked) [Example B062]" label=True
molecule="C#CC(C)(c1ccc(Cl)cc1)c1csc(NC(=O)c2ccc(N3CCNCC3)cc2F)n1 (centres unmarked) [Example B065]" label=False
molecule="C#C[C@](C)(c1ccc(Cl)cc1)c1nc(NC(=O)c2c(F)cc(N3CCNCC3)cc2F)sc1Cl (stereo in doubt) [Example C049]" label=False
molecule="C#CC(C)(c1ccc(F)cc1)c1csc(NC(=O)c2c(F)cc(-c3c[nH]n(C)c3=O)cc2F)n1 (centres unmarked) [Example B103]" label=False
molecule="COCC(C)(c1ccc(Cl)cc1)c1csc(NC(=O)c2c(F)cc(N3CCNCC3)cc2F)n1 (centres unmarked) [Example C016]" label=True
molecule="C#C[C@@](C)(c1ccc(Cl)c(F)c1)c1csc(NC(=O)c2c(F)cc(N3CCNCC3)cc2F)n1 (stereo in doubt) [Example C038]" label=True
molecule="COCC(C)(c1ccc(OC)cc1)c1csc(NC(=O)c2c(F)cc(N3CCNCC3)cc2F)n1 (centres unmarked) [Example C021]" label=True
molecule="C#C[C@](C)(c1ccc(Cl)cc1)c1csc(NC(=O)c2c(F)ccc(N3CCNCC3)c2F)n1 (stereo in doubt) [Example B075]" label=False

====

molecular target: ALPK1 (Homo sapiens (Human)); experiment: ALPK1 in vitro kinase assay (HTRF of TIFA phosphorylation); format: biochemical; conditions: ALPK1 2 nM, TIFA substrate, ADP-Heptose activator, HTRF readout
Listed here: items and their measured IC50.
measured.metric: IC50 (nM)

compound=CC(C)(c1ccc(Br)cc1)c1csc(NC(=O)c2ccc(CN3CCN(CCO)CC3)nc2)n1 measured_metric=IC50 recorded_number=61
compound="C#CC(C)(c1ccc(Br)cc1)c1csc(NC(=O)C2CC(O)C2)n1 (stereo not drawn)" measured_metric=IC50 recorded_number=55
compound=COc1ccc(C(C)(C)c2cnc(NC(=O)c3ccc(N4CCNCC4)c(F)c3)s2)cc1 measured_metric=IC50 recorded_number=216
